Where these numbers come from: ChEMBL document CHEMBL3784952

Documented IC50 across a set of compounds
- ASSAY TARGET: Human immunodeficiency virus type 1 reverse transcriptase (Human immunodeficiency virus 1, UniProt Q72547)
- ASSAY EXPLANATION: Inhibition of HIV1 reverse transcriptase using 234-nt long RNA/18-mer DNA oligonucleotide as template/primer preincubated for 15 mins followed by incubation with template/primer for 40 mins by liquid scintillation counting in presence of alpha[P33]-dCTP
- RECORDED CONDITIONS: read-out: IC50

Some entries whose results are on file:
# SMILES NOTATION, DATA VALUE
rows = [
    ("Cc1ccc(Nc2nc(N)nc(Nc3ccc(C)cc3)n2)cc1", "116 µM"),
    ("Cc1ccc(Nc2nc(O)nc(Nc3ccc(C)cc3)n2)cc1", "55.1 µM"),
    ("CNc1nc(Nc2ccc(C)cc2)nc(Nc2ccc(C)cc2)n1", "> 200 µM"),
    ("COc1ccc(Nc2nc(Nc3ccc(OC)cc3)nc(NC3CCCC3)n2)cc1", "> 200 µM"),
    ("c1coc(CNc2nc(NCc3ccco3)c3nc(NCc4ccco4)[nH]c3n2)c1", "> 200 µM"),
]

Next:
Req: Give the measured IC50 for `Nc1nc(COC(=O)c2c[nH]c3ccccc23)nc(Cc2ccc(F)cc2)n1`
Resp: > 200 µM
